property.name: melting point

Recorded results for 6 compounds are shown here.
[[record]]
compound = "CCc1cnc2cc3c(cc2c1)C1CNCC3C1.Cl (centres unmarked)"
observed = "288 to 291 °C (dec.)"

[[record]]
compound = "Cl.FC(F)(F)c1cccc2c1C1CNCC2C1 (centres unmarked)"
observed = "275 to 277 °C"

[[record]]
compound = "CC(=O)c1ccc2c(c1)C1CNCC2C1.Cl (centres unmarked)"
observed = "198 to 202 °C"

[[record]]
compound = "Cl.Oc1cccc2c1C1CNCC2C1 (centres unmarked)"
observed = "253 to 255 °C"

[[record]]
compound = "Cl.c1cnc2cc3c(cc2c1)C1CNCC3C1 (centres unmarked)"
observed = "260 °C (dec.)"

[[record]]
compound = "Cl.O=[N+]([O-])c1ccc2c(c1)C1CNCC2C1 (centres unmarked)"
observed = "265 to 270 °C"


Lab note: Cl.N#Cc1ccc2c(c1)C1CNCC2C1 (centres unmarked) gave melting point of 268 to 273 °C

Lab note: Cl.c1ccc(-c2cccc3c2C2CNCC3C2)cc1 (centres unmarked) gave melting point of 262 to 265 °C

Lab note: Cc1ccc2c(c1)C1CNCC2C1.Cl (centres unmarked) gave melting point of 254 to 255 °C

Lab note: Cc1ccc2cc3c(cc2n1)C1CNCC3C1.Cl (centres unmarked) gave melting point of > 300 °C (dec.)

Lab note: Cl.c1nc2cc3c(cc2[nH]1)C1CNCC3C1 (centres unmarked) gave melting point of > 250 °C

* * *

property.name: melting point

[[record]]
compound = "Cl.c1ccc(-n2cnc3cc4c(cc32)C2CNCC4C2)cc1 (centres unmarked)"
observed = "210 to 213 °C"

[[record]]
compound = "Cl.Nc1ccc2c(c1)C1CNCC2C1 (centres unmarked)"
observed = "189 to 192 °C"

[[record]]
compound = "CC(C)c1nc2cc3c(cc2o1)C1CNCC3C1.Cl (centres unmarked)"
observed = "249 to 251 °C"


Lab note: Cl.Fc1cccc2c1C1CNCC2C1 (centres unmarked) gave melting point of 269 to 271 °C

* * *

melting point values for the compounds below.

[[record]]
compound = "Cl.O=c1ccc2cc3c(cc2[nH]1)C1CNCC3C1 (stereo not drawn)"
observed = "300 °C (dec.)"

[[record]]
compound = "Cl.Fc1cc2c(cc1F)C1CNCC2C1"
observed = "301 to 303 °C"


// next item, melting point requested
Lab note: Cl.Clc1cc2c(cc1Cl)C1CNCC2C1 gave melting point of 283 to 291 °C

* * *

property.name: melting point

Lab note: Cc1nc2cc3c(cc2s1)C1CNCC3C1.Cl (stereo not shown) gave melting point of 183 to 184 °C

* * *

property.name: melting point

[[record]]
molecule = "Cl.Fc1ccc2c(c1)C1CNCC2C1 (stereo not drawn)"
observed = "260 to 262 °C"


Lab note: CC(=O)Nc1ccc2c(c1)C1CNCC2C1.Cl (stereo not drawn) gave melting point of 225 to 230 °C

Lab note: Cc1nc2cc3c(cc2o1)C1CNCC3C1.Cl (stereo not drawn) gave melting point of > 250 °C

Lab note: Cc1nc2cc3c(cc2n1C)C1CNCC3C1.Cl (stereo not drawn) gave melting point of 225 to 230 °C

Lab note: CN1CC2CC(C1)c1cc3nccnc3cc12.Cl gave melting point of > 250 °C

* * *

property.name: melting point

[[record]]
compound = "Cc1nc2cc3c(cc2n1-c1ccccc1)C1CNCC3C1.Cl (stereo not shown)"
observed = "> 250 °C"

[[record]]
compound = "CC(C)Cn1cnc2cc3c(cc21)C1CNCC3C1.Cl (stereo not shown)"
observed = "147 to 150 °C"

[[record]]
compound = "Cl.O=C(Nc1cc2c(cc1O)C1CNCC2C1)c1ccccc1F (stereo not shown)"
observed = "125 to 130 °C"


Lab note: Cc1nc2cc3c(cc2n1CC(C)C)C1CNCC3C1.Cl (stereo not shown) gave melting point of 129 to 130 °C
